Kindly supply the reported EC50 values for the records listed here.
target: CLK3 kinase (Homo sapiens, UniProt P49761); assay: CLK3 kinase activity assay (Z-lyte FRET); conditions: Z-lyte Ser/Thr 18 peptide, 156 μM ATP, 1 h at room temperature
Sequence (P49761 whole entry): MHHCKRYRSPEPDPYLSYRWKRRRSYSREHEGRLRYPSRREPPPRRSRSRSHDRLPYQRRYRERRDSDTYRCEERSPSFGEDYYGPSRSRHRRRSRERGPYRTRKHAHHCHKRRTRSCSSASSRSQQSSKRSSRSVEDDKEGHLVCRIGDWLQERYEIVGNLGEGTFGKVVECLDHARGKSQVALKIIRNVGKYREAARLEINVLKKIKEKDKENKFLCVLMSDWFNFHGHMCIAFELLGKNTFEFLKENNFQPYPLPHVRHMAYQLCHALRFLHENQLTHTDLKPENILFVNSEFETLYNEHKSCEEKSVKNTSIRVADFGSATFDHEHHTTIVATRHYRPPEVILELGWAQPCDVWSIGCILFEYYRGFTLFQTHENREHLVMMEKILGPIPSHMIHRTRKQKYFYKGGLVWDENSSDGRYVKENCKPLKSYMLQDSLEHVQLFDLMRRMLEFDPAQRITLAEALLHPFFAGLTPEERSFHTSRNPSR
Answers are plain numbers, in nM.

See these solved cases before continuing.
> print(dat)
                                   compound  reported
1  c1cc2[nH]c(-c3n[nH]c4ccc(-c5cncc(CN6CCCCC6)c5)cc34)cc2c(N2CCCCC2)n1 [compound 469]       470
2  CC(C)CC(=O)Nc1cncc(-c2cc3c(-c4nc5c(-c6cc(F)cc(OCCN7CCCC7)c6)cncc5[nH]4)n[nH]c3cn2)c1 [compound 298]        13
3  CN1CCN(c2ccc(NC(=O)c3n[nH]c4ccc(-c5cncc(NC(=O)C6CC6)c5)cc34)cn2)CC1 [compound 55]        13
4  CN(C)CCOc1cc(C(=O)Nc2cc3cc(-c4cnn(C)c4)ccc3cn2)ccn1 [compound 544]        31
5  Cc1ccc(-c2cncc3[nH]c(-c4n[nH]c5cnc(-c6cncc(NC(=O)C7CCC7)c6)cc45)nc23)s1 [compound 277]        29

Hi! Can you tell me EC50 for each of these compounds?
1. Cc1ccc(-c2nccc3[nH]c(-c4n[nH]c5cnc(-c6cncc(N)c6)cc45)nc23)s1 [compound 273]
2. O=C(Cc1ccccc1)Nc1cncc(-c2ccc3[nH]nc(-c4nc5c(-c6cccc(F)c6)cncc5[nH]4)c3c2)c1 [compound 129]

OUT:
29
164

###

Kindly supply the reported pEC50 values for the records listed here.
target: CLK2 kinase (Homo sapiens, UniProt P49760); test: CLK2 kinase activity assay (Z-lyte FRET); details: Z-lyte Ser/Thr 6 peptide, 60 μM ATP, 1 h at room temperature
Sequence (P49760 whole entry): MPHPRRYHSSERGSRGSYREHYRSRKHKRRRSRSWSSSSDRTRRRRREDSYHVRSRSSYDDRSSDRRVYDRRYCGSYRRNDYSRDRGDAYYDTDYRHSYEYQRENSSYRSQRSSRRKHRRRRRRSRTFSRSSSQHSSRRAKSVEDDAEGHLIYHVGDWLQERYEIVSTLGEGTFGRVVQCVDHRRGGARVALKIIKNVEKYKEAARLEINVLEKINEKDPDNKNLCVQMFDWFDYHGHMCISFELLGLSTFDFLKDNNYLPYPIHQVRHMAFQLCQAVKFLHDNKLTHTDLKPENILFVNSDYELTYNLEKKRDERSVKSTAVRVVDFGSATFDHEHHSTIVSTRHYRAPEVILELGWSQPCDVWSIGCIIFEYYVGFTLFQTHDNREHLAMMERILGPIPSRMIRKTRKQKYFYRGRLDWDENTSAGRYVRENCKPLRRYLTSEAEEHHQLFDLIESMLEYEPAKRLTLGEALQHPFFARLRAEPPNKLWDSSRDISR
Answers are plain numbers, as −log10 of the molar value.

See these solved cases before continuing.
> print(dat)
                               linenotation                         measurementtarget  endpoint  reported
1  CS(=O)(=O)NCc1cc(F)cc(-c2cncc3[nH]c(-c4n[nH]c5ncc(-c6cncc(CN7CCCCC7)c6)cc45)cc23)c1  CLK2 kinase (Homo sapiens, UniProt P49760)     pEC50      8.22
2  Nc1cncc(-c2ccc3[nH]nc(-c4cc5c(-c6ccncc6)nccc5[nH]4)c3c2)c1  CLK2 kinase (Homo sapiens, UniProt P49760)     pEC50      8.15
3  O=C(Nc1cncc(-c2cc3c(-c4cc5c(-c6ccc(F)cc6)nccc5[nH]4)n[nH]c3cn2)c1)C1CC1  CLK2 kinase (Homo sapiens, UniProt P49760)     pEC50      8.00

Next up:
IN: Query (molecule): `CC#CC(=O)Nc1cc2cc(-c3cnn(C)c3)ccc2cn1` ; field requested: pEC50
OUT: 8.15

###

Kindly supply the reported EC50 values for the records listed here.
system: primary human mesenchymal stem cells (hMSCs); assay: Chondrogenesis screening using primary human mesenchymal stem cells; format: cell-based; conditions: Homo sapiens, Mesenchymal stem cells, hMSC chondrogenesis; concentration required to induce 50% levels of chondrogenesis with TGF-β3 as positive control; read-out: Conc (nM) of 50% TGF-β3 activity
One number for each entry, in nM.

See these solved cases before continuing.
> print(dat)
                               linenotation  resultunits  reported
1  CN(C)Cc1cncc(-c2ccc3[nH]nc(-c4cc5c(-c6ccccc6F)cncc5[nH]4)c3n2)c1           nM        30
2  CN(C)Cc1cncc(-c2cnc3[nH]nc(-c4cc5c(-c6cccc(F)c6)cncc5[nH]4)c3c2)c1           nM        10

IN: Query (compound): `c1cncc(-c2ccc3[nH]nc(-c4nc5c(-c6cccnc6)cccc5[nH]4)c3n2)c1` ; field requested: EC50
OUT: 30

###

target: CLK3 kinase (Homo sapiens, UniProt P49761); assay: CLK3 kinase activity assay (Z-lyte FRET); conditions: Z-lyte Ser/Thr 18 peptide, 156 μM ATP, 1 h at room temperature;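 note: kinase activity read as coumarin/fluorescein emission ratio by FRET, unphosphorylated peptide as 0% and phosphorylated peptide as 100% control, values from non-linear regression of dose-response curves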
pEC50: −log10 of the molar value.
The label depends only on pEC50: TRUE if it is at least 7, FALSE if it is smaller.

Solved entries:
> print(dat)
                               linenotation  category
1  Cc1n[nH]c2ccc(-c3cncc(N4CCC(O)CC4)n3)cc12     FALSE
2  CN(C)Cc1cncc(-c2cc3c(-c4cc5c(-c6cccc(F)c6)nccc5[nH]4)n[nH]c3cn2)c1     FALSE
3  CC(C)(C)CC(=O)Nc1cncc(-c2cc3c(-c4cc5c(-c6ccccc6F)nccc5[nH]4)n[nH]c3cn2)c1     FALSE
4  CN1Cc2ccc(C(=O)Nc3cc4cc(-c5cncn5C)ccc4cn3)cc2C1      TRUE

IN: # bool: pEC50 of `CC(C)C(=O)Nc1cncc(-c2cc3c(-c4cc5c(-c6cccc(F)c6)cncc5[nH]4)n[nH]c3cn2)c1` >= 7
OUT: FALSE

IN: # bool: pEC50 of `Fc1ccc(-c2cncc3[nH]c(-c4n[nH]c5cnc(-c6cncc(CN7CCCC7)c6)cc45)nc23)s1` >= 7
OUT: TRUE

###

molecular target: CLK2 kinase (Homo sapiens, UniProt P49760); test: CLK2 kinase activity assay (Z-lyte FRET); details: Z-lyte Ser/Thr 6 peptide, 60 μM ATP, 1 h at room temperature
Kindly supply the reported EC50 values for the records listed here.
Numbers only, in nM.

See these solved cases before continuing.
> print(dat)
                               linenotation  endpoint  reported
1  O=C(Nc1cncc(-c2ccc3[nH]nc(-c4cc5c(-c6cccnc6)cncc5[nH]4)c3c2)c1)C1CCCC1      EC50         6
2  CCCCC(=O)Nc1cncc(-c2ccc3[nH]nc(-c4nc5c(-c6ccoc6)cncc5[nH]4)c3n2)c1      EC50         3
3  c1csc(-c2ccnc3[nH]c(-c4n[nH]c5ccc(-c6cncc(OC7CCNCC7)c6)nc45)cc23)c1      EC50        16
4  CC(C)CC(=O)Nc1cncc(-c2ccc3[nH]nc(-c4nc5c(-c6ccc(Cl)s6)cncc5[nH]4)c3n2)c1      EC50        15
5  COc1ccc(NC(=O)c2n[nH]c3ccc(-c4cncc(CN5CCCCC5)c4)cc23)cn1      EC50         1
6  Cc1ncc(-c2ccc3cnc(NC(=O)c4ccc(OC(C)C)cc4)cc3c2)n1C      EC50         2
7  Fc1cccc(-c2cncc3[nH]c(-c4n[nH]c5ccc(-c6cn[nH]c6)nc45)nc23)c1      EC50         3
8  CCNCc1cncc(-c2ccc3[nH]nc(-c4cc5c(-c6cc(F)cc(CNS(C)(=O)=O)c6)cncc5[nH]4)c3c2)c1      EC50         5

Hi! Can you tell me EC50 for each of these compounds?
1. Cc1ncc(-c2ccc3[nH]nc(-c4nc5c(-c6cc(F)cc(NCCN(C)C)c6)ccnc5[nH]4)c3n2)n1C
2. c1cncc(-c2ccc3[nH]nc(-c4nc5c(N6CCOCC6)cncc5[nH]4)c3c2)c1
3. c1ccc(CNCc2cncc(-c3ccc4[nH]nc(-c5cc6c(-c7cccs7)cncc6[nH]5)c4c3)c2)cc1
4. CC(C)Nc1cncc(-c2ccc3[nH]nc(-c4nc5c(-c6ccccc6F)cncc5[nH]4)c3c2)c1
5. CN1CCC2(CC1)CN(c1cc(C(=O)Nc3cc4cc(-c5cnn(C)c5)ccc4cn3)ccn1)C2

OUT:
[4, 1, 7, 6, 1]

Hi! Can you tell me EC50 for each of these compounds?
1. Cc1ccncc1-c1ccc2[nH]nc(-c3nc4c(-c5ccsc5)nccc4[nH]3)c2c1
2. CC(C)(C)C(=O)Nc1cncc(-c2ccc3[nH]nc(-c4nc5c(-c6cccnc6)cncc5[nH]4)c3c2)c1

OUT:
1: 15; 2: 3

###

target: CLK2 kinase (Homo sapiens, UniProt P49760); experiment: CLK2 kinase activity assay (Z-lyte FRET); conditions: Z-lyte Ser/Thr 6 peptide, 60 μM ATP, 1 h at room temperature;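 note: FRET read-out as coumarin to fluorescein emission ratio, unphosphorylated peptide as 0% and phosphorylated peptide as 100% controls, duplicate reactions, non-linear regression fit of dose-response curves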
Kindly supply the reported EC50 values for the records listed here.
Write the quantity with the unit trailing the number.

See these solved cases before continuing.
> print(dat)
                               linenotation  reported
1  Cn1ncc(-c2ccc3cnc(NC(=O)c4ccnc(N5CCOCC5)c4)cc3c2)c1CN1CCOCC1      2 nM
2  CC(C)CC(=O)Nc1cncc(-c2cc3c(-c4cc5c(-c6cc(F)cc(CNS(C)(=O)=O)c6)cncc5[nH]4)n[nH]c3cn2)c1     15 nM
3  COc1cccc(-c2cncc3[nH]c(-c4n[nH]c5ccc(-c6cccnc6)nc45)nc23)c1      1 nM

Next up:
IN: I'm curious: which EC50 was measured for `CC(C)Nc1cncc(-c2ccc3[nH]nc(-c4nc5c(-c6ccoc6)ccnc5[nH]4)c3n2)c1` tested on CLK2 kinase (Homo sapiens, UniProt P49760)?
OUT: 2 nM
